// provenance: ChEMBL document CHEMBL3045171

system: Mus musculus; test: Analgesic activity in Mus musculus (mouse) assessed as inhibition of p-benzoquinone-induced writhing at 25 mg/kg, ip pretreated 30 min prior to carrageenan administration measured 1 hr after carrageenan challenge (reference value: 0%); format: functional; details: route intraperitoneal
# inhibition in vivo at 25 mg/kg annotations
The figure you give is taken to be in %; do not add the unit.

A selection of reference data follows.
{"columns": ["Compound", "inhibition in vivo at 25 mg/kg, %"],
 "data": [
  ["COc1ccc(C2=NN(C(=O)NS(=O)(=O)c3ccc(Cl)cc3)CC2c2ccccc2)c(OC)c1 (stereo not drawn)", 40],
  ["COc1ccc(C2=NN(C(=O)NS(=O)(=O)c3ccc(C)cc3)CC2C)c(OC)c1 (stereo not drawn)", 20],
  ["COc1ccc(-c2c(C)c(C(=O)O)nn2-c2ccc(Cl)cc2)c(OC)c1", 40],
  ["COc1ccc(-c2c(-c3ccccc3)c(C(=O)O)nn2-c2ccc(Cl)cc2)c(OC)c1", 80]
]}

Note: attention shifts to another entry.
INPUT: Sample COc1ccc(C2=NNCC2C)c(OC)c1 (stereo not drawn) — what was its inhibition in vivo at 25 mg/kg?
OUTPUT: 80

====

system: Rattus norvegicus; test: Anti-inflammatory activity in Rattus norvegicus albino (rat) assessed as inhibition of carrageenan-induced paw edema at 25 mg/kg, ip pretreated 30 min prior to carrageenan administration measured 4 hr after carrageenan challenge (reference value: 0%); assay type: functional; conditions: route intraperitoneal
Everything with inhibition in vivo at 25 mg/kg lower than 20% is n; everything else, including exactly 20%, is y.

Solved cases below.
{"columns": ["Compound", "Measured On", "Assigned Label"],
 "data": [
  ["Cc1ccc(-c2cc(C(F)(F)F)nn2-c2ccc(S(N)(=O)=O)cc2)cc1 [CELECOXIB]", "Rattus norvegicus", "y"],
  ["C=C(C(=O)c1ccc(OC)cc1OC)c1ccccc1", "Rattus norvegicus", "n"]
]}

INPUT: I'd appreciate it if you could say whether COc1ccc(C2=NN(C(=O)NS(=O)(=O)c3ccc(C)cc3)CC2c2ccccc2)c(OC)c1 (stereo not given) has inhibition in vivo at 25 mg/kg at least equal to 20%.
OUTPUT: n

INPUT: Could you please find out whether "CCOC(=O)c1nn(-c2ccccc2)c(-c2ccc(OC)cc2OC)c1C" has inhibition in vivo at 25 mg/kg that meets 20% or exceeds it?
OUTPUT: n

INPUT: Confirm if inhibition in vivo at 25 mg/kg reported for the compound "COc1ccc(-c2c(-c3ccccc3)c(C(=O)O)nn2-c2ccc(Cl)cc2)c(OC)c1" is 20% or above.
OUTPUT: y

====

# key: entry, value: inhibition in vivo at 25 mg/kg
system: Mus musculus; assay: Analgesic activity in Mus musculus (mouse) assessed as inhibition of p-benzoquinone-induced writhing at 25 mg/kg, ip pretreated 30 min prior to carrageenan administration measured 3 hr after carrageenan challenge (reference value: 0%); format: functional; details: route intraperitoneal

Before answering, review these 7 worked examples.
{"columns": ["Compound", "Measured On", "inhibition in vivo at 25 mg/kg"],
 "data": [
  ["Cc1ccc(-c2cc(C(F)(F)F)nn2-c2ccc(S(N)(=O)=O)cc2)cc1 [CELECOXIB]", "Mus musculus", "80%"],
  ["COc1ccc(C2=NN(C(=O)NS(=O)(=O)c3ccc(C)cc3)CC2C)c(OC)c1 (stereo not drawn)", "Mus musculus", "0%"],
  ["CCOC(=O)c1nn(-c2ccc(Cl)cc2)c(-c2ccc(OC)cc2OC)c1C", "Mus musculus", "20%"],
  ["COc1ccc(-c2c(C)c(C(=O)O)nn2-c2ccc(Cl)cc2)c(OC)c1", "Mus musculus", "20%"],
  ["C=C(C)C(=O)c1ccc(OC)cc1OC", "Mus musculus", "0%"],
  ["COc1ccc(C2=NNCC2C)c(OC)c1 (stereo not drawn)", "Mus musculus", "40%"],
  ["COc1ccc(-c2c(-c3ccccc3)c(C(=O)O)nn2-c2ccc(Cl)cc2)c(OC)c1", "Mus musculus", "40%"]
]}

Query compound follows.
INPUT: What value of inhibition in vivo at 25 mg/kg has been recorded for this entry: COc1ccc(C2=NN(C(=O)NS(=O)(=O)c3ccc(Cl)cc3)CC2c2ccccc2)c(OC)c1 (stereo not drawn)
OUTPUT: 20%

====

tested on: Rattus norvegicus; experiment: Anti-inflammatory activity in Rattus norvegicus albino (rat) assessed as inhibition of carrageenan-induced paw edema at 25 mg/kg, ip pretreated 30 min prior to carrageenan administration measured 1 hr after carrageenan challenge (reference value: 0%); type: functional; conditions: route intraperitoneal
Cut-off 7% on inhibition in vivo at 25 mg/kg, inclusive. At or above means y; below means n.

Here's what some known entries look like.
{"columns": ["Compound", "Assigned Label"],
 "data": [
  ["CCOC(=O)c1nn(-c2ccc(Cl)cc2)c(-c2ccc(OC)cc2OC)c1C", "n"],
  ["CC(C)Cc1ccc(C(C)C(=O)O)cc1 (stereo unspecified)", "y"]
]}

INPUT: Could you please find out whether "CCOC(=O)c1nn(-c2ccccc2)c(-c2ccc(OC)cc2OC)c1C" has inhibition in vivo at 25 mg/kg that meets 7% or exceeds it?
OUTPUT: n

INPUT: Dear colleague, could you confirm whether "C=C(C(=O)c1ccc(OC)cc1OC)c1ccccc1" has inhibition in vivo at 25 mg/kg at or above 7%?
OUTPUT: n

INPUT: Hello, I need to know if COc1ccc(C2=NNCC2C)c(OC)c1 (stereo unspecified) has measured inhibition in vivo at 25 mg/kg not below 7%. Thanks!
OUTPUT: y

INPUT: Reported inhibition in vivo at 25 mg/kg at or above 7%? COc1ccc(C2=NN(C(=O)NS(=O)(=O)c3ccc(C)cc3)CC2c2ccccc2)c(OC)c1 (stereo unspecified)
OUTPUT: n

====

assay: Toxicity in ip dosed Mus musculus (mouse) after 24 hr; assay type: organism-based; details: in vivo
# Lookup of reported LD50 at 24 h keyed by entry
# output: bare number, implied unit mg/kg

{"columns": ["Molecule", "Obs Value"],
 "data": [
  ["COc1ccc(C2=NN(C(=O)NS(=O)(=O)c3ccc(C)cc3)CC2c2ccccc2)c(OC)c1 (stereo not given)", 292],
  ["COc1ccc(C2=NNCC2C)c(OC)c1 (stereo not given)", 292],
  ["CCOC(=O)C(=O)C(C(=O)c1ccc(OC)cc1OC)c1ccccc1 (stereo not given)", 278],
  ["CCOC(=O)C(=O)C(C)C(=O)c1ccc(OC)cc1OC (stereo not given)", 278],
  ["C=C(C)C(=O)c1ccc(OC)cc1OC", 278],
  ["CCOC(=O)c1nn(-c2ccc(Cl)cc2)c(-c2ccc(OC)cc2OC)c1C", 248],
  ["COc1ccc(C2=NN(C(=S)NC(=O)c3ccc(Cl)cc3)CC2C)c(OC)c1 (stereo not given)", 232],
  ["CCOC(=O)c1nn(-c2ccc(Cl)cc2)c(-c2ccc(OC)cc2OC)c1-c1ccccc1", 278]
]}

INPUT: Quick one: LD50 at 24 h for "C=C(C(=O)c1ccc(OC)cc1OC)c1ccccc1" ?
OUTPUT: 232

INPUT: Please give the measured LD50 at 24 h for this molecule: "COc1ccc(-c2c(-c3ccccc3)c(C(=O)O)nn2-c2ccc(Cl)cc2)c(OC)c1"
OUTPUT: 232

INPUT: I am curious: what LD50 at 24 h value has been reported for "CCOC(=O)c1nn(-c2ccccc2)c(-c2ccc(OC)cc2OC)c1C" ?
OUTPUT: 278

====

test system: Mus musculus; test: Analgesic activity in Mus musculus (mouse) assessed as inhibition of p-benzoquinone-induced writhing at 25 mg/kg, ip pretreated 30 min prior to carrageenan administration measured 1 hr after carrageenan challenge (reference value: 0%); type: functional; details: route intraperitoneal
Measurement Name: inhibition in vivo at 25 mg/kg (%)
Field: numeric (%). Do not append units.

Use these answered entries as a reference point.
{"columns": ["Compound", "inhibition in vivo at 25 mg/kg, %"],
 "data": [
  ["Cc1ccc(-c2cc(C(F)(F)F)nn2-c2ccc(S(N)(=O)=O)cc2)cc1", 100],
  ["C=C(C)C(=O)c1ccc(OC)cc1OC", 20]
]}

Please turn your attention to the following entry.
INPUT: Which inhibition in vivo at 25 mg/kg is reported for this compound? "CCOC(=O)c1nn(-c2ccc(Cl)cc2)c(-c2ccc(OC)cc2OC)c1C"
OUTPUT: 40

====

tested on: Rattus norvegicus; test: Anti-inflammatory activity in Rattus norvegicus albino (rat) assessed as inhibition of carrageenan-induced paw edema at 25 mg/kg, ip pretreated 30 min prior to carrageenan administration measured 4 hr after carrageenan challenge (reference value: 0%); format: functional; conditions: route intraperitoneal
Measurement Name: inhibition in vivo at 25 mg/kg
Include the unit after the number when you answer.

Below, 4 compounds whose answers are already recorded.
{"columns": ["Compound", "inhibition in vivo at 25 mg/kg"],
 "data": [
  ["COc1ccc(C(=O)Cc2ccccc2)c(OC)c1", "15.9%"],
  ["COc1ccc(C2=NN(C(=S)NC(=O)c3ccc(Cl)cc3)CC2C)c(OC)c1 (stereo not given)", "1.43%"],
  ["COc1ccc(C2=NN(C(=S)NC(=O)c3ccc(Cl)cc3)CC2c2ccccc2)c(OC)c1 (stereo not given)", "1.92%"],
  ["COc1ccc(C2=NN(C(=O)NS(=O)(=O)c3ccc(C)cc3)CC2C)c(OC)c1 (stereo not given)", "25.1%"]
]}

INPUT: Bench note: what inhibition in vivo at 25 mg/kg did COc1ccc(C2=NN(C(=O)NS(=O)(=O)c3ccc(Cl)cc3)CC2C)c(OC)c1 (stereo not given) show?
OUTPUT: 18.8%
